system: MS2 coat protein; experiment: apparent KD of MS2 coat protein; designed switch direction (-1 OFF switch, 1 ON switch): 1; higher = weaker reporter binding; conditions: input ligand: none
measured_quantity: apparent KD of MS2 coat protein (nM)
I only need the number, in nM, no unit after it.

Here's what some known entries look like.
| sequence_record | measured_quantity | quantitative_result |
| --- | --- | --- |
| AUUUUAAAUGCAGGAUAUGAUUAACAUGAGGAUCACCCAUGUGGUGUUGUGAGUAAGGAGAGUGAUCAGAAGGGCAUUUUUUUU [JMF's solution 95] (Eterna round: R96, puzzle: Same State NG 2) | apparent KD of MS2 coat protein | 714 |
| UAGUGCAUUAGAGGAUAUUCUUACGACACGAGUAAGACAUGAGGAUCUCCCAUGUUGUGGCAUGGGAAGAAGGCUGAUGUGCUA [Omei SS(NG)2 Bv8] (Eterna round: R96, puzzle: Same State NG 2) | apparent KD of MS2 coat protein | 155 |
| AGUAUUUAUGCAGGAUAUGAUUAACAUGAGGAUCACCCAUGUGGUGUUGUGAGUAAGGAGAGUGAUCAGAAGGGCAUUUUUUUU [JMF's solution 74] (Eterna round: R96, puzzle: Same State NG 2) | apparent KD of MS2 coat protein | 380 |
| GGUGGGUUACUACCAACACAUGAGGAUCACCCAUGUUUUGGGAAGGAUAUGGUACCUAUUUGGUACCAGAAGGUCCAGUUAAUG [salish99_SSNG3_r04_702] (Eterna round: R96, puzzle: Same State NG 3) | apparent KD of MS2 coat protein | 41.7 |
| GGAGCCGGCCUAGGAUAUUUCAUAAAUUAACAUGAGGAUCACCCAUGUAGGCCAGAAGGCCUUGGGAAGAAGGAGGUCGGCUCC [Loop Effect - U27,U28] (Eterna round: R96, puzzle: Same State NG 2) | apparent KD of MS2 coat protein | 51.4 |

Now take the following sequence into account.
QUERY: Field request: apparent KD of MS2 coat protein | item: UGGCUCAGACGAGGAUAUGAUCAUGGCGCUUCGGCGCAUACAUGAGGAUCACCCAUGUAAAGUGAUCAGAAGGCGUCUGAGCCU [SSNG2/7-A3] (Eterna round: R96, puzzle: Same State NG 2)
RESULT: 15

----------
Here the recorded apparent KD of K4 kissing-loop reporter is given for each entry.
tested on: K4 kissing-loop RNA reporter; assay: apparent KD of K4 kissing-loop reporter; higher = weaker reporter binding; settings: Eterna round: R107; input ligand: none;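 also: bound reporter read as fluorescence of individual clusters on recovered sequencing chips by microscopy, with normalized cluster intensities fitted with a binding model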
I only need the number, in nM, no unit after it.

Here's what some known entries look like.
| sequence_record | unit_spec | apparent KD of K4 kissing-loop reporter |
| --- | --- | --- |
| CGCACACUUGUUGAUACCAGAAGCCGACCGGAAACAUCAUUGAGUGAUGUUCAAGCUGUUUUCCCUUGGCAGCAAACGAGUGGUC [theeternabot_exclusion_KL_Theo_B_22] | nM | 138 |
| GUCAUGCGUUCAGGAUAUGGACCAAUUUAUAUUGCUUAUGCUGUGCCCUGUAUGGCAGUGAUGUUGCCAGAAGGGAGGGCAUGCA [Erbionvean] | nM | 96.6 |

Now take the following sequence into account.
QUERY: Field request: apparent KD of K4 kissing-loop reporter | item: GUGGUACAGGCGGCCGCCACUAGUGAUGUUAGUGUUAGAAGAUAUAGUAUAUAUCGGCAUUUGUUUAGGACCGGGCCUGGUGGAG [aqzacmullin]
RESULT: 184

----------
system: MS2 coat protein; assay: apparent KD of MS2 coat protein; designed switch direction (-1 OFF switch, 1 ON switch): 1; higher = weaker reporter binding; conditions: input ligand: FMN 200 uM
measured_quantity: apparent KD of MS2 coat protein
Units required after the number.

QUERY: Field request: apparent KD of MS2 coat protein | item: CAUACGCGGAGAGGAUAUCGCAGGGUAACGGUAAGUGCCCGAUGACAUGAGGAUCACCCAUGUAUCGAGAAGGCUCCUCACCCU [Eternabot solution 22] (Eterna round: R96, puzzle: Same State NG 2)
RESULT: 10.6 nM

QUERY: Field request: apparent KD of MS2 coat protein | item: AGCCGAGACGCAGGAUAUAGAUAUCUACAUGAGGAUCACCCAUGUAGCAACACGUGGUAGUGAUUCUAGAAGGGUGCUCGGCGC [Omei SS(NG)2 Cv7] (Eterna round: R96, puzzle: Same State NG 2)
RESULT: 44.9 nM

QUERY: Field request: apparent KD of MS2 coat protein | item: UGGUACAUGGGAGGAUAUCAUGUAGAAACAUGAGGAUCACCCAUGUAGAUGGCCGGUAACCGGGAUGAGAAGGCCCAUGUACCU [JL SSNG1 3.64] (Eterna round: R96, puzzle: Same State NG 2)
RESULT: 27 nM

QUERY: Field request: apparent KD of MS2 coat protein | item: GCUCGGAUGAUGGCCCACAUGAGGAUCACCCAUGUGAGUGGGCAGGAUAUCUAGAUUAAGGAUGUAGAGAAGGGCCUACCGAGC [SameState NG3 #34] (Eterna round: R96, puzzle: Same State NG 3)
RESULT: 2070 nM

QUERY: Field request: apparent KD of MS2 coat protein | item: AUAGUUGCUGAAGGAUAUGAUGAGGAUCACCCAUCAGAAGGUUGGCUAUUGGGUGGACAUGAGGAUCACCCGUGUUCUUUGGUA (Eterna round: R96, puzzle: Same State NG 1)
RESULT: 48.6 nM

QUERY: Field request: apparent KD of MS2 coat protein | item: UUGAUGAAUUAAGGAUAUCGAGUCGUCUAAUUAAACAUGAGGAUCACCCAUGUGGGUUGUGGUAUCGAGAAGGUAAAUUACUUA [JR_SSNG2_Sub098] (Eterna round: R96, puzzle: Same State NG 2)
RESULT: 66.2 nM

----------
Here the recorded apparent KD of MS2 coat protein is given for each entry.
system: MS2 coat protein; assay: apparent KD of MS2 coat protein; designed switch direction (-1 OFF switch, 1 ON switch): 1; higher = weaker reporter binding; conditions: input ligand: none
I only need the number, in nM, no unit after it.

| sequence_record | unit_spec | quantitative_result |
| --- | --- | --- |
| UGAAUAGUUACAGGAUAUCAUGCGAAAAUUGCGUGAGAAGGGUGGGUGUUGUGCGCUAAGUGCUACAUGAGGAUCACCCAUGUU [SameState NG1 #37] (Eterna round: R96, puzzle: Same State NG 1) | nM | 213 |
| ACAUGAGACUUAGGAUAUGUUGUACCUACAUGUGACAUGAGGAUCACCCAUGUGGUAAGUAUGAGGCAGAAGGGAGAGAUAUGU [Equivalence 47 - Jieux - Same State NG 2] (Eterna round: R96, puzzle: Same State NG 2) | nM | 77.7 |

Now take the following sequence into account.
QUERY: Give MS2 coat protein apparent KD of MS2 coat protein for AGCCGAGACGCAGGAUAUAGAUAUCUACAUGAGGAUCACCCAUGUAGCAACACGUGGUAGUGAUUCUAGAAGGGUGCUCGGCGC [Omei SS(NG)2 Cv7] (Eterna round: R96, puzzle: Same State NG 2)
RESULT: 504

----------
system: MS2 coat protein; test: apparent KD of MS2 coat protein; designed switch direction (-1 OFF switch, 1 ON switch): -1; higher = weaker reporter binding; details: input ligand: FMN 200 uM
Here the recorded apparent KD of MS2 coat protein is given for each entry.
I only need the number, in nM, no unit after it.

Here's what some known entries look like.
| sequence_record | quantitative_result |
| --- | --- |
| CCAUCACAUGAGGAUCACCCAUGUCAGGAUAUCUCAGUGCAUCCACACGGACGCAUCAAGAGAAGGGACAAAAC [Vinxlusion 4 - Jieux - Exclusion 1] (Eterna round: R97, puzzle: Exclusion 1) | 35.9 |
| CAGUACUGAGGAUAUACAUGAGGAUCACCCAUGUGUGUGAAAUUUAUGUGGUCGUAAUGUAGAAGGCAGUACUG [JR_Ex3_Sub028] (Eterna round: R97, puzzle: Exclusion 3) | 30.5 |
| CUUAUGUCAGGAUAUUAGUAGUAAAUAAAUAAAAUUAUUACUGAGAAGGGACAUGAGGAUCACCCAUGUUCCUC [Salish 062 v4] (Eterna round: R97, puzzle: Exclusion 4) | 96 |
| GAGGAUGUAGGAUAUACUUAGGGUGAGCUCUAAGUGAAUCAACAUGAGGAUCACCCAUGUAGAAGGGCAGGACG [Eternabot (Original) Solution 37] (Eterna round: R97, puzzle: Exclusion 2) | 248 |

QUERY: Field request: apparent KD of MS2 coat protein | item: AAACUACUUGGGCUGACACAUGAGGAUCACCCAUGUGGAGGGCAGGAUAUGCCCAUAAAAUUGGCGCAGAAGGGCCCACGUAGA [Tegesousbe] (Eterna round: R96, puzzle: Exclusion NG 3)
RESULT: 17.1

QUERY: Field request: apparent KD of MS2 coat protein | item: GGCAUGCAAGGAUAUACUUGCAGUGAUAUUCGAUAAAGUCUACUUGAGGAUCACCCAAGUAGAAGGUGCAUGCC [Exclusion 2 (Mod6 JL EX2 4.74 Vienna UCT mod of Mamaed)] (Eterna round: R97, puzzle: Exclusion 2)
RESULT: 35

QUERY: Field request: apparent KD of MS2 coat protein | item: AUCGGGUCAGGAUAUCAUAGGAGCUGAUAUCCUCGGCUCGGUGAGAAGGGACUUGAGGAUCACCCAAGUAGGGC [Ririonte] (Eterna round: R97, puzzle: Exclusion 4)
RESULT: 44.4

QUERY: Field request: apparent KD of MS2 coat protein | item: CAGUGCGUAGGAUAUACGAGGGCCCUUUAUUGUUGAUAAUGACAUGAGGAUCACCCAUGUAGAAGGGCGUCAUG [Eternabot (L1) Solution 45] (Eterna round: R97, puzzle: Exclusion 2)
RESULT: 87.3

QUERY: Field request: apparent KD of MS2 coat protein | item: UAUGGUUAAGUCAGGAUAUGCUCGUAGUGGUCUAUGCAGAAGGGACAUGAGGAUCACCCAUGUAUGGUCGUGUU [Ex4 #68] (Eterna round: R97, puzzle: Brourd's mod of Exclusion 4)
RESULT: 119

Hey, just so you know, these numbers are from the supplement of paper PMC9170038.
